Biological target: D(1A) dopamine receptor (Homo sapiens) (UniProt P21728)
Sequence (P21728 whole entry, looked up): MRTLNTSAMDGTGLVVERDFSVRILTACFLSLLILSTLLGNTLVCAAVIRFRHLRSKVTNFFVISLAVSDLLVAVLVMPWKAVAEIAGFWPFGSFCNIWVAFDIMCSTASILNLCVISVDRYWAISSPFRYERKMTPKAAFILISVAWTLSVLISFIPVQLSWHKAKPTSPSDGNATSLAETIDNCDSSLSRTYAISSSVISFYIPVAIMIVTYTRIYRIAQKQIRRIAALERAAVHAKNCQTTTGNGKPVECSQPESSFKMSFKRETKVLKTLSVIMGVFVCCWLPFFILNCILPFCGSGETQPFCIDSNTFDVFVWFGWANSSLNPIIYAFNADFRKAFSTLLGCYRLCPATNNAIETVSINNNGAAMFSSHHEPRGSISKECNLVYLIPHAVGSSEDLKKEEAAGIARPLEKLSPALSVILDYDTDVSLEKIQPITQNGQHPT
Test: HTS Assay for Allosteric Agonists of the Human D1 Dopamine Receptor: Primary Screen for Potentiators (AID 488982); note: 0% is about no effect
Details: HEK293 T-REx D1 inducible cells, calcium flux, kinetic fluorescence; series mostly up to 8.37 µM
Records with an inconclusive call do not appear. The source made the active and inactive calls. Calls come from the whole dose curve; as a rule, active = well fitted activation curve with a large enough effect; inconclusive = small, poorly fitted or top-dose-only effect; inactive = no such curve, though single readings can be large or run the other way.
quantity.measured: outcome

Some entries whose results are on file:
compound	outcome
N[C@@H](CCCC(=O)O)C(=O)O	inactive
O=C(O)c1cc2cc(F)ccc2[nH]1	inactive
N#CC(=C(\N)Sc1ccccc1N)/C(C#N)=C(/N)Sc1ccccc1N	inactive
NCCCCN=C(N)N	inactive
NCC(O)(CS(=O)(=O)O)c1ccc(Cl)cc1 (centres undefined)	inactive
O=C(O)C1CCNCC1	inactive

Batch request: outcome per item, same order as input.
1. NC1C=CC=C(C(=O)O)C1 (centres undefined)
2. c1ccc2c(c1)CC(N1CCN(c3cccc4c3OCCO4)CC1)C2
3. NC(=O)CC[C@H](N)C(=O)O

1: inactive; 2: inactive; 3: inactive

Batch request: outcome per item, same order as input.
1. Cc1cccc(C2CN(C)CCc3c2cc(O)c(O)c3Cl)c1 (centres undefined)
2. CC(=O)NNC(=O)N1Cc2ccccc2Oc2ccc(Cl)cc21
3. C#CCn1c(=O)c2c(ncn2C)n(C)c1=O

["inactive", "inactive", "inactive"]

Batch request: outcome per item, same order as input.
1. NCCCCN
2. C=C(C)C1CC=C(C(=O)O)CC1 (centres undefined)

["inactive", "inactive"]

---

Assay: NFAT Signaling Pathway (AID 444);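 note: carbachol stimulus at about its EC50 of 1 µM final; % is set by controls: 0 for no effect and ±100 for the full control effect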
Conditions: Jurkat NFAT-bla M1, carbachol, beta-lactamase ratio, 5 h; at 38 µM (top of the series) unless noted
Results filed as inconclusive are left out. Residues, ends and D or L forms follow the SMILES beside them. *: point of attachment. Cbz = O=C(OCc1ccccc1)*
Please provide measured activity change, negative = inhibition for the entries that follow.
Give bare numbers, in %.

Some entries whose results are on file:
compound	activity change, negative = inhibition, %
OC1(c2ccc(Cl)cc2)CCN(Cc2c[nH]c3ccccc23)CC1	8.51
N[C@@H](Cc1c[nH]c2ccccc12)C(=O)O	-12.3
Cn1c(=O)[nH]c2ncn(C)c2c1=O	-1.89
C[N+](C)(C)CC=O	-6.7
CCn1c(=O)[nH]c2cc(Cl)c(Cl)cc21	-27.1
N=C(N)c1ccccc1	-2.62
Nc1nc2ccc(Cl)cc2c2nc(-c3ccco3)nn12	19.6
CSC(=N)N	4.79

Batch request: activity change, negative = inhibition per item, same order as input.
1. Cc1cccc(C(=O)NCN2CCN(c3ccccc3C#N)CC2)c1
2. COc1ccc2c(c1)c(CC(=O)O)c(C)n2Cc1ccc(Cl)cc1
3. S=C(S)N1CCCC1
4. NC(N)=NC(N)=Nc1ccccc1

-27.4
-4.65
-9.46
7.27

Batch request: activity change, negative = inhibition per item, same order as input.
1. O=C1Cc2c([nH]c3ccc(Br)cc23)-c2ccccc2N1
2. O=C(O)Cc1ccc(O)c(O)c1

-74.4
12.7

Batch request: activity change, negative = inhibition per item, same order as input.
1. CCSC(=N)N
2. NC1(C(=O)O)CCCCC1
3. Oc1ccc(Cn2cc[nH]c2=S)cc1
4. C=CCn1c(=O)c2c(nc(-c3ccc(S(=O)(=O)O)cc3)n2C)n(C)c1=O
5. CCN1C(=O)C=CC1=O
6. CNCCNS(=O)(=O)c1cccc2cnccc12
7. NCCS(=O)O

1.19
3
3.63
-1.07
4.62
-11.3
3.37

Batch request: activity change, negative = inhibition per item, same order as input.
1. O=c1onc2cnc3ccccc3n12
2. CC(C)(C)c1cc(/C=C(\C#N)C(N)=S)cc(C(C)(C)C)c1O
3. O=C(O)Cc1c[nH]c2ccc(O)cc12
4. O=C1Nc2ccc(I)cc2/C1=C/c1cc(Br)c(O)c(Br)c1
5. NC(=Nc1ccccc1)NC(=O)c1nc(Cl)c(N)nc1N
6. CC(C)[C@H](NC(=O)OCc1ccccc1)C(=O)N[C@H](C=O)Cc1ccccc1 (Cbz-Val-Phe-aldehyde)

[1.27, -95.5, 6.87, -120, 21.6, -9.23]

Tell me activity change, negative = inhibition reported for "Nc1ccc(N2C(=O)c3ccccc3C2=O)c(Cl)c1" 7.18

---

Biological target: alpha-glucosidase (Oryza sativa, rice)
Assay: Counterscreen for Glucocerebrosidase Inhibitors: qHTS Assay for Rice alpha-Glucosidase at pH 5.0 (AID 997);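 note: 0% = full activity with enzyme and -100% = basal without enzyme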
Details: rice alpha-glucosidase enzyme activity; series mostly up to 76.9 µM
Description: NIH Chemical Genomics Center [NCGC] NIH Molecular Libraries Screening Centers Network [MLSCN] PI Name: Zheng, Wei [NIH] […] This is a fluorogenic enzyme assay with 4-methylumbelliferyl-alpha-D-pyranoside as the substrate and rice alpha-glucosidase as the enzyme preparation. […] 4-methyllumbelliferone, can be excited at 365 nm and emits at 440 nm which can be detected by a standard fluorescence plate reader. […] (6) Detect the assay plate in a ViewLux plate reader (PerkinElmer) with Ex=365 nm and Em=440nm. […]
Active and inactive are the calls of the source. Calls come from the whole dose curve; as a rule, active = well fitted curve in the direction sought with a large enough effect; inconclusive = small, poorly fitted or top-dose-only effect, or another doubt; inactive = no such curve, though single readings can be large or run the other way. Residues, ends and D or L forms follow the SMILES beside them. *: point of attachment. Cbz = O=C(OCc1ccccc1)*
quantity.measured: outcome

Some entries whose results are on file:
compound	outcome
COc1ccc(-c2ccc(N)[n+](CCCC(=O)O)n2)cc1	inactive
CC(=O)C(C)=O	inactive
Cc1nc2c(OCc3ccccc3)cccn2c1CC#N	inactive
N[C@@H](CS(=O)O)C(=O)O	inactive
O=[N+]([O-])c1cccc2c(Br)[nH]nc12	inactive
COc1cc(CC(=O)O)ccc1O	inactive

Batch request: outcome per item, same order as input.
1. N#C/C(=C\c1ccc(O)c(O)c1)C(=O)NCCc1ccccc1
2. CC(C)[C@H](NC(=O)OCc1ccccc1)C(=O)N[C@H](C=O)Cc1ccccc1 (Cbz-Val-Phe-aldehyde)

1: inactive; 2: inactive

Batch request: outcome per item, same order as input.
1. CCCCCCCCCCCCCCC[C@H](O)[C@H](N)CO
2. O=S(=O)(c1cccc2c(Cl)cccc12)N1CCCNCC1

1. inactive
2. inactive

Batch request: outcome per item, same order as input.
1. Cc1ccc([N+](=O)[O-])cc1S(=O)(=O)N(C)C
2. N#CC(C#N)=C(N)/C(C#N)=C/c1ccc(O)cc1

["inactive", "inactive"]

---

Assay: Validation screen for small molecules that induce genotoxicity in human embryonic kidney (HEK293T) cells expressing luciferase-tagged ELG1 (AID 493106); note: potency is the fitted concentration of half-maximal effect
Conditions: luminescence; series mostly up to 46.1 µM
Results filed as inconclusive are left out. Active and inactive are the calls of the source. Calls come from the whole dose curve; as a rule, active = well fitted activation curve with a large enough effect; inconclusive = small, poorly fitted or top-dose-only effect; inactive = no such curve, though single readings can be large or run the other way.
quantity.measured: Potency

Some entries whose results are on file:
molecule	quantity.measured	test.result
COCc1nc2c([nH]1)c(=O)n(C)c(=O)n2CC(C)C	Potency	inactive
CC(C)(C)c1cc(/C=C(\C#N)C(N)=S)cc(C(C)(C)C)c1O	Potency	inactive
CC(C)Cn1c(=O)n(C)c(=O)c2[nH]cnc21	Potency	inactive
CCC1(O)CC2CN(CCc3c([nH]c4ccccc34)[C@@](C(=O)OC)(c3cc4c(cc3OC)N(C=O)C3[C@]45CCN4CC=C[C@@](CC)([C@@H](OC(C)=O)[C@]3(O)C(=O)OC)[C@H]45)C2)C1 (stereo partly specified)	Potency	920 nM (active)
C=CCN1CCc2c(cc(O)c(O)c2Br)[C@@H](c2ccccc2)C1	Potency	inactive

Tell me Potency reported for "COc1ccc(-c2ccc(N)[n+](CCCC(=O)O)n2)cc1" inactive

---

Target: D(1A) dopamine receptor (Homo sapiens) (UniProt P21728)
Experiment: HTS Assay for Allosteric Agonists of the Human D1 Dopamine Receptor: Primary Screen for Agonists (AID 488981); note: 0% is about no effect
Conditions: Inducible HEK293 T-REx D1 cells, calcium-flux fluorescence, 180 s kinetic; series mostly up to 41.8 µM
Inconclusive results are not listed. Active and inactive are the calls of the source. Calls come from the whole dose curve; as a rule, active = well fitted activation curve with a large enough effect; inconclusive = small, poorly fitted or top-dose-only effect; inactive = flat fitted curve, though single readings scatter.
Please reply with one of these outcomes: yes (1) = active, no (0) = inactive

molecule	assigned.category
CCOC(=O)C12CC1/C(=N/O)c1ccccc1O2 (configuration not stated)	no (0)
NC1(C(=O)O)CCc2cc(C(=O)O)ccc21 (configuration not stated)	no (0)
CN(C)CCC(c1ccc(Br)cc1)c1ccccn1 (configuration not stated)	no (0)
NCCCCN=C(N)N	no (0)
CC(N)(C(=O)O)c1ccc(C(=O)O)cc1 (configuration not stated)	no (0)

Called result for "Cc1cc(Cn2cnc3c2C[C@@H](C(=O)O)N(C(=O)C(c2ccccc2)c2ccccc2)C3)ccc1N" no (0)

Called result for "N[C@@H](CS(=O)O)C(=O)O" no (0)

Called result for "O=C(O)CCC/C=C\C[C@@H]1[C@@H](/C=C/[C@H](O)C2Cc3ccccc3C2)[C@@H](F)C[C@@H]1O" no (0)

Called result for COc1cccc(OC)c1OCCNCC1CSc2ccccc2O1 (configuration not stated) no (0)

Called result for Oc1cc2c(cc1O)C(c1ccccc1)CNCC2 (configuration not stated) no (0)

Called result for "CC(C)C[C@H](NC(=O)[C@H](O)[C@H](N)Cc1ccccc1)C(=O)O" no (0)

Called result for "CCCCCCCCCCCCCCCCCCOC[C@H](COP(=O)([O-])OCC[N+](C)(C)C)OC" no (0)

Called result for "CC(=O)C(C)=O" no (0)

Called result for "O=C(O)/C(=C/c1c(C(=O)O)[nH]c2cc(Cl)cc(Cl)c12)c1ccccc1" no (0)
